Quick list: kon per entry.
Target: T1, human B7-H4 extracellular domain (human, UniProt Q7Z7D3 29-258)
T1 construct: For SPR it says only human B7-H4 ECD; also called Hu B7-H4 ECD; huB7-H4 ECD
T1 sequence: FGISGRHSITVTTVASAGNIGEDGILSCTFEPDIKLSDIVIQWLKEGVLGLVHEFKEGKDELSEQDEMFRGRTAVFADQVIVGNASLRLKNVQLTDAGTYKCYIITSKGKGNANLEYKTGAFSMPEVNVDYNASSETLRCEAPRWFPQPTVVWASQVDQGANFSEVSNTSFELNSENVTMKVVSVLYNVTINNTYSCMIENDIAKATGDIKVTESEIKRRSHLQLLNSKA
Test: SPR Biacore 8K 25 C; mAb captured on anti-human Fc, huB7-H4 ECD analyte, 1:1 fit;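 also: antibodies tested as IgG1, running buffer HBS-EP+ at pH 7.4, rate constants and affinity from a 1:1 Langmuir model fit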
Lab book: enter the figure in M⁻¹ s⁻¹, no units written.

# annotated cases, reported kon shown
1. B7-H4 antibody 0048 (antibody, human IgG1, kappa, V domains shown, also called 11F12) VH: EVQLLESGGGLVQPGGSLRLSCAASGFTFSSYAMKWVRQAPGKGLEWVSTTSGSGGTTYYADSVKGRFTISRDNSKNTLYLQMNSLRAEDTAVYYCAKAGWAAAFDYWGQGTLVTVSS VL: DIQLTQFPSTLSASVGDRITITCRASQSISDWLAWYQQKPGKAPKLLIYKASSLESGVPSRFSGSGSGTEFTLTISSLQPDDFATYYCQQCNSYWTFGQGTKVEIKR :: 745000
2. B7-H4 antibody 0049 (antibody, human IgG1, kappa, V domains shown, also called 13F4) VH: EVQLLESGGGLVQPGGSLRLSCAASGFTFSSYAMSWVRQAPGKGLEWVSAISGSGGSTYYADSVKGRFTISRDNSKNTLFLHMNSLRAEDTAVYYCARDIQWFGESVFDYWGQGTLVTVSS VL: DIQMTQSPSTLSASVGDRVTITCRASQSISSWLAWYQQKPGKAPKLLIYKASSLESGVPSRFSGNGSGTEFTLTISSLQPDDLATYYCQYYNSYSRTFGQGTKVEIKR :: 225000

Now for another entry.
Looking up B7-H4 antibody 0061 (antibody, human IgG1, kappa, V domains shown, also called 46E10) VH: QVQLQQWGAGLLKPSETLSLTCAVYGGSFSGYFWSWIRQPPGKGLEWIGEFNHSGGTNSNPSLKSRVTMSVDTSKNQFSLKLSSVTAADTAVYFCARAGGDYGFYYYYGLDVWGQGTTVTVSS VL: DIQLTQSPSTLSASVGDRVTITCRASQSISSWLAWYQQKPGKAPELLVYKASRLESGVPSRFSGSGSGTEFTLTISSLQPDDFATYYCQQYNSYFGGGTKVEIKR , I found its kon recorded as 678000
